FYI, the data here is from PubChem BioAssay AID1240.

- system-under-test: Bcl-2-like protein 10 (Homo sapiens) (UniProt Q9HD36)
- Sequence (Q9HD36 whole entry, looked up): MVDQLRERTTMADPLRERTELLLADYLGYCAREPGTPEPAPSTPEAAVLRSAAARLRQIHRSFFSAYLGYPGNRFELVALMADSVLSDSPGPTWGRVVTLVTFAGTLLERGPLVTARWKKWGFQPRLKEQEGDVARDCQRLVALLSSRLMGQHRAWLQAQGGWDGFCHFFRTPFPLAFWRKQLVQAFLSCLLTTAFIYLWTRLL
- experiment-description: TR3 peptide-Bcl-B binding displacers, biochemical primary FP assay, phenotype converters (AID 1240);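 also: 0% = Bcl-B with tracer peptide and DMSO and 100% = tracer peptide lacking Bcl-B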
- particulars: GST-Bcl-B / FITC-TR3 peptide fluorescence polarization; stronger effect = higher value; compound at 3.75 mg/L
The whole screen tested about 50,000 compounds, of which about 800 (1.6%) showed an effect of 50% or more. For the sample, strong results were picked, then their nearest neighbours and some compounds at random.
measure: displacement (%)

molecule	assay-result
COc1ccc(NC(=O)c2ccc(N(Cc3ccc(Cl)cc3)S(C)(=O)=O)cc2)c(OC)c1	26.7
Cc1ccc(Cl)cc1NC(=O)C(=O)NCc1ccco1	-13.4
COc1cc(C(=S)N2CCOCC2)cc(OC)c1OC(=O)c1cccc([N+](=O)[O-])c1	70.4
CC(C)COc1ccc(C(=O)Nc2ccc(Cl)cc2)cc1	13.1
C=CCn1c(C)c(/C=C(/C#N)C(=O)Nc2ccc(OC)cc2)c2ccccc21	-6.6
CCc1ccc(S(=O)(=O)Nc2ccccc2OC)cc1	13.8
CCOc1ccc(-c2cc(OCC)c3c(C)oc(C)c3c(=[O+]CC)c2)cc1	2.4
CN1CCN(c2c([N+](=O)[O-])c(=O)n(C)c3ccccc23)CC1	-4.8
CC1CCN(Cc2c(O)ccc3c4c(c(=O)oc23)CCC4)CC1	12.8
Cn1c(-c2cc3ccc(O)c(CN4CCOCC4)c3oc2=O)nc2ccccc21	19.1
Cc1ccc(S(=O)(=O)Nc2ccccc2C(O)C[N+](=O)[O-])cc1 (configuration not stated)	-4.2
Cc1cccc(NC(=O)C2C(C(=O)O)C3C=CC2C32CC2)c1 (configuration not stated)	-1.1
